meta.source: patent US20210269525A1

- Assayed Target: T1, monkey CD3e (Macaca fascicularis) on PBMC (Macaca fascicularis, UniProt Q95LI5 22-198)
- T1 construct: Target on PBMC from Macaca fascicularis; also called mfCD3e; monkey PBMC
- T1 sequence (Q95LI5 22-198 limits assumed): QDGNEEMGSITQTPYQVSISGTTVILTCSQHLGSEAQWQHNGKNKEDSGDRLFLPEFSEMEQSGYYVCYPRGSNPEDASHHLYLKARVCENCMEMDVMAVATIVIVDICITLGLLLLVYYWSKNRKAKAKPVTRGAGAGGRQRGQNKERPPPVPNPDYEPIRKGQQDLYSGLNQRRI
- Test: flow cytometry, Macaca fascicularis PBMC, antibody concentration not given, anti-human IgG Fc-Alexa Fluor647 (1:500), anti-hTcRβ-PerCP (1:30)
Property: upper right quadrant, percent of cells AF647+ / hTcRβ-PerCP+ (%)
Please state the figure in %; there is no need to write the unit.

Query: Quick one: upper right quadrant, percent of cells AF647+ / hTcRβ-PerCP+ for 1B1-H4K3-IgG1-LALA (antibody, V domains shown, Humanized; human IgG1 with LALA mutations; also called H4K3 (humanized 1B1)) VH: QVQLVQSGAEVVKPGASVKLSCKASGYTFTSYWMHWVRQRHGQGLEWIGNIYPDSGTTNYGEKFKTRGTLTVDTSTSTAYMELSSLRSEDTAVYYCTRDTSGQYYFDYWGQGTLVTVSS VL: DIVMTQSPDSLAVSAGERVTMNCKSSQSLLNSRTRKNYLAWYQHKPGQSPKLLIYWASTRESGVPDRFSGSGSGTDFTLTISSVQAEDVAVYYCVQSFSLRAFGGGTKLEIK ?
Response: 10.1

Query: Quick one: upper right quadrant, percent of cells AF647+ / hTcRβ-PerCP+ for 1B1-H3K1-IgG1-LALA (antibody, V domains shown, Humanized; human IgG1 with LALA mutations; also called H3K1 (humanized 1B1)) VH: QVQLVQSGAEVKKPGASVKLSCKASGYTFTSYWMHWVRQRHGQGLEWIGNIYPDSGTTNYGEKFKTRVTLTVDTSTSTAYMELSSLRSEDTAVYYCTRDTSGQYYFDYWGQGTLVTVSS VL: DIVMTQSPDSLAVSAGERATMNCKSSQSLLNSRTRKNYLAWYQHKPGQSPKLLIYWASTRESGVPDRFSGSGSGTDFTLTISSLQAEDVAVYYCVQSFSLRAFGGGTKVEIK ?
Response: 18.3

Query: Quick one: upper right quadrant, percent of cells AF647+ / hTcRβ-PerCP+ for 1B1-H1K1-IgG1-LALA (antibody, V domains shown, Humanized; human IgG1 with LALA mutations; also called H1K1 (humanized 1B1)) VH: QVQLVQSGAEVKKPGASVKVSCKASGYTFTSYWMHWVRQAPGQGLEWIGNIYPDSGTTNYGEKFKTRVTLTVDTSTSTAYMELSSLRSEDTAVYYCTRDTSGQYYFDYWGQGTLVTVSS VL: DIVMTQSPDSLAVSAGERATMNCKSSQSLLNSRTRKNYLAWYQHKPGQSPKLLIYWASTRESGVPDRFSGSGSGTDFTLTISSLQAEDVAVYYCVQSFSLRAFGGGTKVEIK ?
Response: 26.2

Query: Quick one: upper right quadrant, percent of cells AF647+ / hTcRβ-PerCP+ for 1B1-H3K2-IgG1-LALA (antibody, V domains shown, Humanized; human IgG1 with LALA mutations; also called H3K2 (humanized 1B1)) VH: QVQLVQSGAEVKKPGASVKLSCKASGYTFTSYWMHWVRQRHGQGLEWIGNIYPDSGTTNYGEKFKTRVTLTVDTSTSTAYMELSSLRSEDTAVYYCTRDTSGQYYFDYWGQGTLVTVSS VL: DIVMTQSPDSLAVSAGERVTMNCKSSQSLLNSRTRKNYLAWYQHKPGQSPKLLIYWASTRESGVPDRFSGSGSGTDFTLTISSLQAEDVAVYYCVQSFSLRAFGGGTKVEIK ?
Response: 7.53

Query: Quick one: upper right quadrant, percent of cells AF647+ / hTcRβ-PerCP+ for 1B1-H4K2-IgG1-LALA (antibody, V domains shown, Humanized; human IgG1 with LALA mutations; also called H4K2 (humanized 1B1)) VH: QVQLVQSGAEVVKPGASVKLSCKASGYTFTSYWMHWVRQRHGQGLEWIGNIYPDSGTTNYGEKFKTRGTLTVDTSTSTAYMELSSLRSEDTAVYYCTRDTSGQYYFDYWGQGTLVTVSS VL: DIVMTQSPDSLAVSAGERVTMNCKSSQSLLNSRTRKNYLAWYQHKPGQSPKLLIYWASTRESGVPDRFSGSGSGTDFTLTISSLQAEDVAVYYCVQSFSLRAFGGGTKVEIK ?
Response: 24.4
